Give IC50 for every item shown.
- System: Dvl-2
- Assay: Western Blotting, Dvl-2 level
- Assay type: cell-based
- Condition: human liver cancer cells, Lewis lung cancer cells and other cancer cell lines and tumor tissues, read-out: Effective concentration (IC50) for inhibition of Dvl-2

Entry under test: CCNC(=O)CC[C@@H](NC(=O)c1cc2cc(Br)cc(Br)c2oc1=O)C(=O)OCC . Its IC50 was < 100 µM

Shifting focus to the compound that follows.
Documented IC50 of CCNC(=O)CC[C@@H](NC(=O)c1cc2cc(Cl)cc(Cl)c2oc1=O)C(=O)OCC : < 100 µM

---

- Tested on: Caski human cervical cancer cells
- Assay: MTT growth inhibition, Caski cells
- Format: cell-based
- Condition: Ca-Ski, 72 h after treatment, read-out: Drug concentration (IC50) at which 50% cancer cells survived
Hi there, I'd appreciate the recorded log10 IC50 for every entry that follows.
Please note: log10 values; quantity IC50; unit µM.

Worked cases, answers included:
Documented log10 IC50 of CCNC(=O)CCC(NC(=O)c1cc2ccccc2oc1=O)C(=O)OCC (centres unmarked) : 2.06

compound O=C(O)c1cc2cc(F)ccc2oc1=O , log10 IC50 observed: 2.58

Sure, the documented log10 IC50 for CCNC(=O)CC[C@H](N)C(=O)OC is 2.51

compound O=C(O)c1cc2cc(Cl)cc(Cl)c2oc1=O , log10 IC50 observed: 2.40

So for O=C(O)c1cc2cc(Br)cc(Br)c2oc1=O , the logged log10 IC50 turned out to be 2.13

Field log10 IC50 (entry CCNC(=O)CCC(NC(=O)c1cc2cc(F)ccc2oc1=O)C(=O)OCC (stereo in doubt) ) reads 2.36

Just so you know, measured log10 IC50 for CCNC(=O)CC[C@@H](NC(=O)c1cc2cc(Br)ccc2oc1=O)C(=O)OCC came out at 2.00

Short answer for O=C(O)c1cc2cc([N+](=O)[O-])ccc2oc1=O : log10 IC50 was 2.48

GET /value?item= CCNC(=O)CC[C@@H](NC(=O)c1cc2cc(Cl)ccc2oc1=O)C(=O)OCC &field=log10 IC50 returns 1.93

For this compound ( CCNC(=O)CC[C@@H](NC(=O)c1cc2cc(Br)cc(Br)c2oc1=O)C(=O)OCC ), measured log10 IC50 is 1.72

Batch: log10 IC50 for all items listed.
1. CCNC(=O)CCC(NC(=O)c1cc2ccccc2oc1=O)C(=O)OC (centres unmarked)
2. CCNC(=O)CC[C@@H](NC(=O)c1cc2cc(Cl)cc(Cl)c2oc1=O)C(=O)OCC
3. O=C(O)c1cc2cc(Cl)ccc2oc1=O

[2.32, 1.56, 2.60]

Items follow; give log10 IC50 for each.
1. COc1cc([C@@H]2c3cc4c(cc3[C@@H](O[C@@H]3O[C@@H]5CO[C@@H](C)O[C@H]5[C@H](O)[C@H]3O)[C@H]3COC(=O)[C@H]23)OCO4)cc(OC)c1O [Etoposide, reference compound]
2. CCNC(=O)CCC(NC(=O)c1cc2cc([N+](=O)[O-])ccc2oc1=O)C(=O)OCC (stereo in doubt)
3. CCNC(=O)CC[C@H](N)C(=O)OCC

1. 1.95
2. 2.08
3. 2.48

---

- Tested on: Lewis lung cancer (highly metastatic mouse lung cancer) cells
- Assay: Mouse Lewis lung cancer metastasis model
- Assay type: in vivo, C57/BL6J black mice
- Condition: Lewis lung carcinoma, ip, LLC, 60 mg/kg intraperitoneal once a day, vs DMSO solvent control, read-out: tumor lung metastasis inhibition rate % of mouse Lewis lung cancer
Measured Attribute: inhibition in vivo at 60 mg/kg (%)
Numbers only, in %.

Before answering, review these 6 worked examples.
For this compound ( CCNC(=O)CC[C@@H](NC(=O)c1cc2cc(Br)ccc2oc1=O)C(=O)OCC ), measured inhibition in vivo at 60 mg/kg is 69.2

The value of inhibition in vivo at 60 mg/kg measured for the compound CCNC(=O)CC[C@@H](NC(=O)c1cc2cc(Cl)cc(Cl)c2oc1=O)C(=O)OCC turned out to be 75.5

inhibition in vivo at 60 mg/kg reading for CCNC(=O)CCC(NC(=O)c1cc2cc(F)ccc2oc1=O)C(=O)OCC (stereo in doubt) : 61.6

Entry CCNC(=O)CC[C@H](N)C(=O)OCC ; inhibition in vivo at 60 mg/kg = 52.3

Field inhibition in vivo at 60 mg/kg (entry CCNC(=O)CC[C@H](N)C(=O)OC ) reads 36.8

Measured inhibition in vivo at 60 mg/kg of CCNC(=O)CC[C@@H](NC(=O)c1cc2cc(Cl)ccc2oc1=O)C(=O)OCC : 74.2

Each compound below has a reported value. Please supply its inhibition in vivo at 60 mg/kg.
1. CCNC(=O)CCC(NC(=O)c1cc2cc([N+](=O)[O-])ccc2oc1=O)C(=O)OCC (stereo in doubt)
2. CCNC(=O)CCC(NC(=O)c1cc2ccccc2oc1=O)C(=O)OC (stereo not shown)
3. CCNC(=O)CC[C@@H](NC(=O)c1cc2cc(Br)cc(Br)c2oc1=O)C(=O)OCC
4. CCNC(=O)CCC(NC(=O)c1cc2ccccc2oc1=O)C(=O)OCC (stereo not shown)

1. 67.5
2. 55.4
3. 77.9
4. 58.2

---

- Tested on: HDAC3
- Assay: Western Blotting, HDAC3 level
- Format: cell-based
- Condition: human liver cancer cells, Lewis lung cancer cells and other cancer cell lines and tumor tissues, read-out: Effective concentration (IC50) for inhibition of HDAC3
Consider the following compounds; for each one, report its IC50.

IC50 recorded for this compound, CCNC(=O)CC[C@@H](NC(=O)c1cc2cc(Cl)cc(Cl)c2oc1=O)C(=O)OCC [Compound Ig] , is < 65 µM

Entry CCNC(=O)CC[C@@H](NC(=O)c1cc2cc(Br)ccc2oc1=O)C(=O)OCC [Compound Id] , IC50 reported as < 65 µM

IC50 reading for CCNC(=O)CCC(NC(=O)c1cc2cc(F)ccc2oc1=O)C(=O)OCC (stereo in doubt) [Compound Ie] : < 55 µM

List reported IC50 for each of these compounds:
1. CCNC(=O)CC[C@@H](NC(=O)c1cc2cc(Br)cc(Br)c2oc1=O)C(=O)OCC [Compound Ih]
2. CCNC(=O)CCC(NC(=O)c1cc2cc([N+](=O)[O-])ccc2oc1=O)C(=O)OCC (stereo in doubt) [Compound If]
3. CCNC(=O)CCC(NC(=O)c1cc2ccccc2oc1=O)C(=O)OCC (centres unmarked) [Compound Ib]

< 65 µM
< 55 µM
< 70 µM

For each of the compounds below, state IC50.
1. CCNC(=O)CC[C@@H](NC(=O)c1cc2cc(Cl)ccc2oc1=O)C(=O)OCC [Compound Ic]
2. CCNC(=O)CCC(NC(=O)c1cc2ccccc2oc1=O)C(=O)OC (centres unmarked) [Compound Ia]

["< 65 µM", "< 75 µM"]

---

Would you kindly list inhibition in vivo at 90 mg/kg for each of these compounds?
- Tested on: Lewis lung cancer (highly metastatic mouse lung cancer) cells
- Assay: Mouse Lewis lung cancer metastasis model
- Assay type: in vivo, C57/BL6J black mice
- Condition: Lewis lung carcinoma, ip, LLC, 90 mg/kg intraperitoneal once a day, vs DMSO solvent control, read-out: tumor lung metastasis inhibition rate % of mouse Lewis lung cancer

Field: example entries. Status: answers known.
Case CCNC(=O)CCC(NC(=O)c1cc2cc(F)ccc2oc1=O)C(=O)OCC (stereo in doubt) , Lewis lung cancer (highly metastatic mouse lung cancer) cells, inhibition in vivo at 90 mg/kg recorded as 70.8%

Measured inhibition in vivo at 90 mg/kg for this entry CCNC(=O)CC[C@@H](NC(=O)c1cc2cc(Br)cc(Br)c2oc1=O)C(=O)OCC on Lewis lung cancer (highly metastatic mouse lung cancer) cells: 80.7%

inhibition in vivo at 90 mg/kg for Lewis lung cancer (highly metastatic mouse lung cancer) cells with input CCNC(=O)CC[C@@H](NC(=O)c1cc2cc(Br)ccc2oc1=O)C(=O)OCC equals 82.5%

Continue with the compound presented below.
Entry CCNC(=O)CC[C@@H](NC(=O)c1cc2cc(Cl)ccc2oc1=O)C(=O)OCC ; assay system Lewis lung cancer (highly metastatic mouse lung cancer) cells; inhibition in vivo at 90 mg/kg recorded at 79.2%

---

- System: human breast cancer cells MCF-7 xenograft
- Assay: In-vivo growth of MCF-7 xenografts in nude mice
- Parameters: species or system BALB/c nude mice
- Condition: Mus musculus, MCF7, ip, 60 mg/kg intraperitoneal once a day, vs DMSO solvent control, read-out: Curative effect (inhibition rate %) of tumor weight
Output Satisfied for inhibition in vivo at 60 mg/kg not less than 60%; output Not satisfied otherwise.

Worked cases, answers included:
Does the molecule CCNC(=O)CC[C@H](N)C(=O)OCC have recorded inhibition in vivo at 60 mg/kg that is 60% or more? Not satisfied

Is reported inhibition in vivo at 60 mg/kg greater than or equal to 60% here: CCNC(=O)CCC(NC(=O)c1cc2cc(F)ccc2oc1=O)C(=O)OCC (stereo in doubt) Satisfied

Say whether CCNC(=O)CCC(NC(=O)c1cc2ccccc2oc1=O)C(=O)OC (stereo not drawn) shows inhibition in vivo at 60 mg/kg of 60% or more. Not satisfied

Reported inhibition in vivo at 60 mg/kg at or above 60%? CCNC(=O)CC[C@@H](NC(=O)c1cc2cc(Cl)cc(Cl)c2oc1=O)C(=O)OCC Satisfied

Next:
Hello, I need to know if CCNC(=O)CCC(NC(=O)c1cc2cc([N+](=O)[O-])ccc2oc1=O)C(=O)OCC (stereo in doubt) has measured inhibition in vivo at 60 mg/kg not below 60%. Thanks! Satisfied
